B1: tRNA (parent)
chain: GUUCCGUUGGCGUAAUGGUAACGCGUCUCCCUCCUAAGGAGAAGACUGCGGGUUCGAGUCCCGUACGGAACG

- Variants of: B1
- assay-explanation: yeast fitness relative to wild type (ratio to wild type); higher = fitter; tRNA-Arg(CCU), competitive growth, 37 C, YPD
This sample holds only a part of the variants without activity.
Cut-off 0.7 on yeast fitness, inclusive. At or above means true; below means false.

mutant-code | discrete-label
U19C C46U A69C | true

Ask | Hello, I need to know if G9A A15U U59A A65C has measured yeast fitness not below 0.7. Thanks!
Reply | false

Ask | Moving on to the next variant: U13A A20G A42G C46U
Reply | false

Ask | Moving on to the next variant: C27G A42U
Reply | true

Ask | Moving on to the next variant: C5U C27G C33G A42C U64A
Reply | false
